Experiment: xn = mol fraction of the nth substance listed, in the solute-free solvent
Settings: 278.15 K; x2 = 0.8
Mark yes for reported solubility (g/100 g solution) of 0.5 or greater; mark no for anything smaller.

Query: solubility (g/100 g solution) >= 0.5 for Cc1ncc(CO)c(CO)c1O.Cl + O + CC(C)O ?
Reply: yes

Query: Dear colleague, could you confirm whether Cc1ncc(CO)c(CO)c1O.Cl + O + CC#N has solubility (g/100 g solution) at or above 0.5?
Reply: yes

Query: Assess whether reported solubility (g/100 g solution) for Cc1c(Br)c(=O)n(C2CCCC2)c2nc(Cl)ncc12 + CCOC(C)=O + CCO sits at 0.5 or higher.
Reply: yes

Query: I'd appreciate it if you could say whether Cc1c(Br)c(=O)n(C2CCCC2)c2nc(Cl)ncc12 + CC1=CC(=O)CC(C)(C)C1 + CC(C)O has solubility (g/100 g solution) at least equal to 0.5.
Reply: no

Query: Record CCOC(=O)OC1=C(c2cc(C)ccc2C)C(=O)NC12CCC(OC)CC2 (stereo not given) + CO + O ; criterion: solubility (g/100 g solution) no lower than 0.5. Met?
Reply: yes

Attribution: the CheMixHub drug solubility set
